Hello, the source for this data is PubChem BioAssay (NCI), in case you need it.

Reported values of TGI for individual entries
test system: UACC-62 melanoma; test: NCI tumour cell line growth inhibition, 48 h
Answer in µM, number only, no unit symbol.

Below, 5 compounds whose answers are already recorded.
Problem: Need TGI, item CC(O)c1cc2c(s1)C(=O)c1scc(C(C)O)c1C2=O (configuration not stated)
Result: 0.587

Problem: Try this compound too: CC(=O)Nc1ccc(-c2nnc(SCC(=O)Nc3cccc([N+](=O)[O-])c3)o2)cc1
Result: 23.7

Problem: Try this compound too: O=C(NCCN1CCC(O)CC1)c1cc2c(o1)C(=O)c1ccccc1C2=O
Result: 0.308

Problem: Try this compound too: COc1ccc(N2C(N)=C(C#N)C(C#N)(C#N)C2c2cccc([N+](=O)[O-])c2)cc1 (configuration not stated)
Result: 30.1

Problem: Try this compound too: CCCCOC(=O)c1ccc(NC(=O)CCl)cc1
Result: 13.3

---
Problem: Need TGI, item C[n+]1c2ccccc2c(Nc2ccc(NS(=O)(=O)CCCCN=C(N)N)cc2)c2ccc(N)cc21
Result: 22.4

Problem: Try this compound too: CCCCCCCCC(O)C#CC(N)=O (configuration not stated)
Result: 19.9

Problem: Try this compound too: N#Cc1ccc(C2C3=C(CCCC3=O)OC3=C2C(=O)c2ccccc2C3=O)cc1 (configuration not stated)
Result: 4.02

Problem: Try this compound too: O=C(Cn1c(=O)oc2ccc(C(=O)c3ccccc3Cl)cc21)c1ccc([N+](=O)[O-])cc1
Result: 40.7

* * *

test system: SF-295 CNS; assay: NCI tumour cell line growth inhibition, 48 h
measurement-label: TGI

Below, 5 compounds whose answers are already recorded.
Problem: Find the measured TGI: item O=C1C2=C(CCCCC2)C2CCCCC12O (stereo not drawn) , target or system SF-295 CNS.
Result: > 100 µM

Problem: Try this compound too: Clc1cc(OCC23CC4CC(CC(C4)C2)C3)nc(OCC23CC4CC(CC(C4)C2)C3)n1
Result: > 100 µM

Problem: Try this compound too: COc1ccc(-c2nnc(-c3ccncc3)o2)cc1
Result: > 100 µM

Problem: Try this compound too: COc1ccc(CCNC(=O)CCCCCO)cc1OC
Result: > 100 µM

Problem: Try this compound too: CCN(CC)CCCC(C)Nc1c2ccc(Cl)cc2nc2cc(OC)c(OC)cc12 (stereo not drawn)
Result: 3.24 µM

---
Problem: Find the measured TGI: item COc1cc([C@H]2c3cc4c(cc3[C@H](NCc3ccc([N+](=O)[O-])cc3)C3COC(=O)[C@H]32)OCO4)cc(OC)c1O (stereo partly drawn) , target or system SF-295 CNS.
Result: 5.14 µM

Problem: Try this compound too: Clc1cccc(N2CCN(CCN3CCc4c([nH]c5ccccc45)C3c3cccnc3)CC2)c1 (stereo not drawn)
Result: > 100 µM

Problem: Try this compound too: Cc1cc(C)c2c(=N)c3ccccc3n(CCCCCCn3c4ccccc4c(=N)c4c(C)cc(C)nc43)c2n1
Result: 2.85 µM

* * *

system: MOLT-4 leukemia; assay: NCI tumour cell line growth inhibition, 48 h
measurement-label: TGI

Below, 5 compounds whose answers are already recorded.
Problem: Need TGI, item COc1ccc(S(=O)(=O)Nc2ccc(-c3csc(N4C(=O)/C(=C/c5ccccc5)N=C4c4ccccc4)n3)cc2)cc1Cl
Result: > 100 µM

Problem: Try this compound too: Clc1ccc2nc(CC3CCCC3)[nH]c2c1
Result: 35 µM

Problem: Try this compound too: CCOC(=O)c1cn(CC)c2cc3c(cc2c1=O)CCS3(=O)=O
Result: > 100 µM

Problem: Try this compound too: COc1ccc(-c2nnc(CCCCCCCCc3nnc(-c4ccc(OC)cc4)n3N)n2N)cc1
Result: > 100 µM

Problem: Try this compound too: O=c1nc(NC(c2ccccc2)(c2ccccc2)c2ccccc2)ccn1CCO
Result: > 100 µM

Kindly consider the entry below.
Problem: Need TGI, item CNC(=O)c1ccccc1[S+]1c2cccc3cccc(c23)C(=O)N1C (stereo not given)
Result: > 100 µM
